Target: Isoform 2 of Nuclear receptor ROR-alpha (Alpha-2) (Homo sapiens, UniProt P35398)
Sequence (P35398 as listed by the source): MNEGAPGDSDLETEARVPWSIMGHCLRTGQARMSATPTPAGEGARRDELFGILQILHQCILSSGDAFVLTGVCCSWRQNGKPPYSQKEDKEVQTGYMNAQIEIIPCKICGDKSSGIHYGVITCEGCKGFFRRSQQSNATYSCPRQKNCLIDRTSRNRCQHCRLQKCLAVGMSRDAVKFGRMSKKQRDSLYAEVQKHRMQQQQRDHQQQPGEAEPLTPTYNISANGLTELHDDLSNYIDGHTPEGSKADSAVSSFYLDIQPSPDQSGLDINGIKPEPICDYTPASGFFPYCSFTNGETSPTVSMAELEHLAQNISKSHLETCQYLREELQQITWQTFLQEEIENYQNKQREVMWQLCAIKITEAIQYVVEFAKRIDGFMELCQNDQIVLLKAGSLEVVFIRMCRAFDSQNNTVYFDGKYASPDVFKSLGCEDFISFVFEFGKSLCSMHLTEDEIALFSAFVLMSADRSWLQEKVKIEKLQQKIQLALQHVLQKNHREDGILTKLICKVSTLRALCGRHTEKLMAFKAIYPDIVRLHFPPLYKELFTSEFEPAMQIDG
Test: activators of RORA ligand-binding domain fusion – cell-based, CHO-K1, Gal4-RORA LBD, luciferase luminescence, counter-screen for SF-1 activator project, dose response (AID 675)
Returns: string. Value is fulfilled if measured EC50 is below 2000 nM, and not fulfilled if it is greater than or equal to it.

API: query returns whether the molecule falls strictly under 2000 nM in EC50. Query: `CC(=O)c1cccc(NC(=O)c2cnn3ccccc23)c1`
fulfilled

Determine whether this molecule shows EC50 lower than 2000 nM (ties excluded): `CC1(C)Cc2c(sc(NC(=O)c3ccc(Br)o3)c2C#N)CO1`
fulfilled

is_below(EC50, 2000 nM) for `COc1ccc(CNc2ccc(C(=O)O)cc2)cc1` ?
fulfilled

hey, is EC50 for CCOc1ccc(N2C(=O)c3ccccc3C2O)cc1 (centres undefined) lower than 2000 nM or not?
fulfilled

Would you kindly verify if EC50 of `CCOC(=O)CSc1nc(-c2ccncc2)ccc1C#N` is strictly less than 2000 nM?
fulfilled

Please state whether EC50 is below 2000 nM for `COc1ccc(-c2cc(C(=O)N3CCCCC3)no2)cc1OC`
not fulfilled

Quick check: EC50 of `CCn1c(SCC(=O)c2cccs2)nnc1-c1ccco1` under 2000 nM?
not fulfilled

Please determine if `COc1ccc(OC)c2sc(NC(=O)c3ccc(Br)s3)nc12` is below 2000 nM in terms of EC50.
not fulfilled

Please indicate whether the reported EC50 of CC(=N)C(C#N)C(=O)CSc1ccc2c(c1)OCCO2 (centres undefined) is strictly below 2000 nM.
fulfilled
